Values from the supplement of paper PMC10065799

target: Hck (UniProt P08631); experiment: phosphorylation enrichment, bacterial display (enrichment ratio); higher = better substrate or ligand; peptides without Tyr show the background;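 further: 11-residue human phosphosite peptides and single-mutation variants displayed on the E. coli surface, counted by deep sequencing, each peptide's frequency after selection divided by its frequency in the unselected input library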;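 further: frequency after pTyr selection over input frequency; kinase dosed for 20-30% of maximal phosphorylation in three min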
Sequence (P08631 whole entry, looked up): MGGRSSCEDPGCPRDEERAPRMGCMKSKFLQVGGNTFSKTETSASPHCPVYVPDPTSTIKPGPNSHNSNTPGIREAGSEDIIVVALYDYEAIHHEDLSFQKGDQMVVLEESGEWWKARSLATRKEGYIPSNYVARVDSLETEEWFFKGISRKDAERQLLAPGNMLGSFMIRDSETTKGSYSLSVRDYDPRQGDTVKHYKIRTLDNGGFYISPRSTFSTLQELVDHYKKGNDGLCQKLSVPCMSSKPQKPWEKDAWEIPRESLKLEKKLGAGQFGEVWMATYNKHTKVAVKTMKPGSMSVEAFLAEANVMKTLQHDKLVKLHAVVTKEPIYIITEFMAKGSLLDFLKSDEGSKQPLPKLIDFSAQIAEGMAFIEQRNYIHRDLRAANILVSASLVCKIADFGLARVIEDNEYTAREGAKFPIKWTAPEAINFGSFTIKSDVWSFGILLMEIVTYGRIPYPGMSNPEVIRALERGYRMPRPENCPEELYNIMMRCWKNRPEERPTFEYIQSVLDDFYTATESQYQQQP
sequences and their reported phosphorylation enrichment
Simply state the number, no unit and no words.

Look over these answered cases.
Q: Reported phosphorylation enrichment for AAETTYDKILK [GDNF_Y156] : what is it?
Result: 1.36

Q: Reported phosphorylation enrichment for LDPDSYNKFEN [FOXC1_Y159_M161K] : what is it?
Result: 0.698

Q: Reported phosphorylation enrichment for ISRLKYPVSQQ [BTK_Y375] : what is it?
Result: 0.352

Then this sequence:
Q: Reported phosphorylation enrichment for RFLERYIFNPE [HLA-DPB1_Y57_R61P_YF] : what is it?
Result: 0.51
